system: P12-Ichikawa; assay: cell viability relative to DMSO control; higher = less cytotoxic; settings: RPMI 5 mM glucose + 10% dialyzed FBS; 48 h; 0.0632 µM
Would you mind telling me the reported cell viability of each entry?
Phrase the answer as number then unit, nothing more needed.

The recorded cell viability for `O=NN(CCCl)C(=O)NC1CCCCC1` is 113%

The recorded cell viability for `CCC[C@H](NC(=O)/C(C#N)=C/c1cccc(Br)n1)c1ccccc1` is 114%

The recorded cell viability for `COc1cc2c(cc1-c1c(C)noc1C)ncc1[nH]c(=O)n([C@H](C)c3ccccn3)c12` is 105%

The recorded cell viability for `C[C@]12C[C@H](O)[C@H]3[C@@H](CC\C4=C\C(=O)\C=C/[C@]34C)[C@@H]1CC[C@]2(O)C(=O)CO` is 117%

The recorded cell viability for CN1[C@@H]2CC[C@H]1CC(OC(=O)c1c[nH]c3ccccc13)C2 (some centres not stated) is 116%

The recorded cell viability for COc1ccc(CC2NCCc3cc(OC)c(OC)cc32)cc1OC (configuration not stated) is 82.1%

The recorded cell viability for `COC1=CC=CC2=C1C(=NC(=N2)C3=CC=CS3)NN4C(=O)\C=C(C)/C4=O` is 87.8%

The recorded cell viability for `COc1cnc(N[S+](=O)([O-])c2ccc(N)cc2)nc1` is 127%

The recorded cell viability for `CCCCCOC(=O)NC\1=N\C(=O)N(\C=C1F)[C@@H]2O[C@H](C)[C@@H](O)[C@H]2O` is 100%

The recorded cell viability for `O=C(OC)[C@]12CC[C@@]3(C)[C@]4(C)CC[C@H]5[C@@](C)(C)C(=O)C(=C[C@]5(C)C4=CC(=O)[C@@H]3[C@@H]2C[C@](C)(C)CC1)C#N` is 101%

The recorded cell viability for COc1cccc2cc(-c3nc(C4CCC(C(=O)O)CC4)n4ncnc(N)c34)[nH]c12 (configuration not stated) is 89.6%

The recorded cell viability for `c1cncc(CN2CCC(n3ncc4c(N5CCOCC5)nc(-c5ccc6[nH]ccc6c5)nc43)CC2)c1` is 91.5%

The recorded cell viability for `ClC1=C(N\C2=N\CCN2)C3=NSN=C3C=C1` is 124%

The recorded cell viability for COc1cc2nc(N(C)CCCNC(=O)C3CCCO3)nc(N)c2cc1OC (configuration not stated) is 82.9%

The recorded cell viability for `COc1ccc(C[C@@H](C)[C@@H](C)Cc2ccc(OC)c(OC)c2)cc1OC` is 104%

The recorded cell viability for `CN[S+](=O)([O-])Cc1ccc2[nH]cc(CCN(C)C)c2c1` is 119%

The recorded cell viability for `CC1=C(/C=C/C(C)=C/C=C/C(C)=C/C=C/C=C(C)/C=C/C=C(C)/C=C/C2=C(C)CCCC2(C)C)C(C)(C)CCC1` is 109%

The recorded cell viability for Cc1ccccc1C(C(=O)NC1CCCCC1)N(C(=O)Cn1ccnc1C)c1cccc(F)c1 (configuration not stated) is 102%

The recorded cell viability for `CC(=O)O.Cc1c(-c2ccc(O)cc2)n(Cc2ccc(OCCN3CCCCCC3)cc2)c2ccc(O)cc12` is 92.5%

The recorded cell viability for `CN\1C(=O)/C(=C(\N=C1N2CCCC[S+]2([O-])=O)C(=O)NCC3=CC=C(F)C=C3)O` is 127%

The recorded cell viability for CC1CCC(C(=O)N(c2cc(C#CC(C)(C)C)sc2C(=O)O)C2CCC(O)CC2)CC1 (configuration not stated) is 86.3%

The recorded cell viability for `CC(C)(C)c1cc(NC(=O)Nc2ccc(-c3cn4c(n3)sc3cc(OCCN5CCOCC5)ccc34)cc2)no1` is 96.6%
